System Name: HLA-B*27:05
Protocol Text: IEDB peptide-MHC binding, purified MHC/direct/fluorescence; filed as Kd, often an IC50 or EC50 that approximates it; bounds were set here for any values at or beyond the usual limits of such assays
Test Conditions: source organism: Pseudomonas fluorescens
pKd: −log10 of the molar value.
Reported Property: pKd

-- ask Hello, I am looking for reported pKd with HLA-B*27:05 for FVSVYFSDY . Could you help?
-- reply ≤ 4.70

---

System Name: HLA-B*39:01
Protocol Text: IEDB peptide-MHC binding, purified MHC/competitive/fluorescence; filed as Kd, often an IC50 or EC50 that approximates it; bounds were set here for any values at or beyond the usual limits of such assays
Test Conditions: source organism: Burkholderia pseudomallei 91
Reported Property: Kd

-- ask # get_value(readout='Kd', item= RAYAAMHLW )
-- reply ≥ 20 µM

---

System Name: HLA-A*32:01
Protocol Text: IEDB peptide-MHC binding, purified MHC/competitive/radioactivity; filed as Kd, often an IC50 or EC50 that approximates it; bounds were set here for any values at or beyond the usual limits of such assays
Test Conditions: source organism: Vaccinia virus WR
Assign a class from recorded Kd; defined classes: bottom range: < 10 nM; center range: ≥ 10 nM and < 300 nM; top range: ≥ 300 nM

IKYACKQIL | top range
AVAKYFSPL | center range
GTINRILVI | center range
STLIFFVII | center range
RVRNIIASI | bottom range

-- ask Which bin should I file SLCKLNNVF under?
-- reply top range

-- ask Which bin should I file RVYVGNVAW under?
-- reply bottom range

-- ask Which bin should I file HVKSTLNNA under?
-- reply top range

-- ask Which bin should I file KTWMINIMI under?
-- reply top range

-- ask Which bin should I file HMLEFLYSF under?
-- reply bottom range

-- ask Which bin should I file ITLTNVVNI under?
-- reply center range

---

System Name: HLA-A*33:01
Protocol Text: IEDB peptide-MHC binding, purified MHC/competitive/radioactivity; filed as Kd, often an IC50 or EC50 that approximates it; bounds were set here for any values at or beyond the usual limits of such assays
Test Conditions: source organism: Mammarenavirus whitewaterense
Reported Property: pKd
pKd is a log-scale quantity: -log10 of the concentration expressed in molar.

-- ask Hello, I am looking for reported pKd with HLA-A*33:01 for SFKDQSKYCH . Could you help?
-- reply 5.06

---

System Name: HLA-A*68:02
Protocol Text: IEDB peptide-MHC binding, purified MHC/competitive/radioactivity; filed as Kd, often an IC50 or EC50 that approximates it; bounds were set here for any values at or beyond the usual limits of such assays
Test Conditions: source organism: Dengue virus 1 Brazil/97-11/1997
Listed sequences paired with reported pKd
pKd is a log-scale quantity: -log10 of the concentration expressed in molar.

TLTAAVLMLV | 8.80

Consider the additional sequence presented here.
-- ask Hello, I am looking for reported pKd with HLA-A*68:02 for MAIGIVSIL . Could you help?
-- reply 8.62

---

System Name: HLA-A*03:01
Protocol Text: IEDB peptide-MHC binding, purified MHC/direct/fluorescence; filed as Kd, often an IC50 or EC50 that approximates it; bounds were set here for any values at or beyond the usual limits of such assays
Test Conditions: source organism: Rickettsia australis
Reported Property: pKd
pKd is a log-scale quantity: -log10 of the concentration expressed in molar.

-- ask # get_value(readout='pKd', item= ATYGTAVNK )
-- reply 7.08
